method_notes: Pharmacokinetics of Compound 1 in combination with MK-3475 in subjects with various cancers
Assay type: in vivo, human
test_conditions: human, plasma, oral, 300 mg, by dose, 300 mg, first dose, mean ± SD; read-out: AUC0-t
property_measured: AUC(0-t) (µM·h)
Respond numerically; units are µM·h and should not be typed.

Give AUC(0-t) for NS(=O)(=O)NCCNc1nonc1C(=NO)Nc1ccc(F)c(Br)c1 [Compound 1]
7.41

###

method_notes: Dose-escalation study of Compound 1 pharmacokinetics in subjects with advanced malignancies (tablets of Formulations 1 and/or 3, fasted; food effect cohort)
Assay type: in vivo, human
test_conditions: human, plasma, oral, 400 mg, 400 mg BID, steady state, geometric mean; read-out: AUC0-τ
property_measured: AUC (µM·h)
Respond numerically; units are µM·h and should not be typed.

Give AUC for NS(=O)(=O)NCCNc1nonc1C(=NO)Nc1ccc(F)c(Br)c1 [Compound 1]
17.6

###

method_notes: Pharmacokinetics of Compound 1 in combination with MK-3475 in subjects with various cancers
Format: in vivo, human
test_conditions: human, plasma, oral, 100 mg BID, Diagnosis OC, steady state C1D8, mean ± SD
property_measured: Cmax (nM)
Respond numerically; units are nM and should not be typed.

Give Cmax for NS(=O)(=O)NCCNc1nonc1C(=NO)Nc1ccc(F)c(Br)c1
1200

###

method_notes: Pharmacokinetics of Compound 1 in combination with MK-3475 in subjects with various cancers
Assay type: in vivo, human
test_conditions: human, plasma, oral, 100 mg, Diagnosis MEL, first dose, mean ± SD
property_measured: Cmax

Give Cmax for NS(=O)(=O)NCCNc1nonc1C(=NO)Nc1ccc(F)c(Br)c1 [Compound 1]
870 nM

###

method_notes: Dose-escalation study of Compound 1 pharmacokinetics in subjects with advanced malignancies (tablets of Formulations 1 and/or 3, fasted; food effect cohort)
Format: in vivo, human
test_conditions: 100 mg BID, steady state, mean ± SD
property_measured: Cmax

Give Cmax for NS(=O)(=O)NCCNc1nonc1C(=NO)Nc1ccc(F)c(Br)c1
1230 nM

###

method_notes: Pharmacokinetics of Compound 1 in combination with MK-3475 in subjects with various cancers
Format: in vivo, human
test_conditions: human, plasma, oral, 25 mg, Cohort 1, 25 mg BID, steady state C1D8, geometric mean; read-out: AUC0-12 h (converted)
property_measured: AUC(0-t) (µM·h)
Respond numerically; units are µM·h and should not be typed.

Give AUC(0-t) for NS(=O)(=O)NCCNc1nonc1C(=NO)Nc1ccc(F)c(Br)c1
1.25

###

method_notes: Pharmacokinetics of Compound 1 in combination with MK-3475 in subjects with various cancers
Type: in vivo, human
test_conditions: human, plasma, oral, 100 mg BID, Diagnosis GU, steady state C1D8, mean ± SD; read-out: Cmin
property_measured: concentration at 8 day (cycle 1) (nM)
Respond numerically; units are nM and should not be typed.

Give concentration at 8 day (cycle 1) for NS(=O)(=O)NCCNc1nonc1C(=NO)Nc1ccc(F)c(Br)c1
154

###

method_notes: Pharmacokinetics of Compound 1 in combination with MK-3475 in subjects with various cancers
Format: in vivo, human
test_conditions: human, plasma, oral, 300 mg, subjects with dose reduction before C4D1, 300 mg BID, C1D8, geometric mean; read-out: AUC0-12 h (converted)
Experimental: The subjects were not limited to a specific cancers and study include subjects with various cancers. […] One treatment cycle consisted of 21 days. […] The RP2D was selected from the evaluated safety expansions. […] Pharmacokinetic samples were obtained at the visits of Cycle 1 Day 1, Cycle 1 Day 8 and Cycle 2 Day 1. […] The exact date and time of the PK blood draws were recorded in the eCRF along with the date and time of the last dose of study drug and details of the last meal preceding the blood draw. […]
property_measured: AUC(0-t) (µM·h)
Respond numerically; units are µM·h and should not be typed.

Give AUC(0-t) for NS(=O)(=O)NCCNc1nonc1C(=NO)Nc1ccc(F)c(Br)c1
13.3
